Biological target: Human farnesyl pyrophosphate synthase (FPPS, Swissprot ID: P14324) (Homo sapiens)
Sequence (P14324 67-419 limits assumed): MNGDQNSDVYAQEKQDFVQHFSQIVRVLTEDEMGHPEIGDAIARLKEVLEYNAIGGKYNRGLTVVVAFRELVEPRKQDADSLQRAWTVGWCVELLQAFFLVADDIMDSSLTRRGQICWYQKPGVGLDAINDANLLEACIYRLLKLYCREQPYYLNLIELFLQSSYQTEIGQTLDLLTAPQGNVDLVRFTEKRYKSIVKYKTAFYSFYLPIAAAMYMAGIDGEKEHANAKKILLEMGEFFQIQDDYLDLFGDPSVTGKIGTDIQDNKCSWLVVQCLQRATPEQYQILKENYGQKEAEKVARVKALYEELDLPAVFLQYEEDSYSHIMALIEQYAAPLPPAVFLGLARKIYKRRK
Quick reference for IC50 among some molecules
ENDPOINT: IC50 (nM)

| MOLECULE | ENDPOINT VALUE |
| --- | --- |
| O=P(O)(O)C(O)(Cn1cnc(Cc2ccccc2)c1)P(=O)(O)O [Example 2] | 1.4 |
| Cc1ccc(CCCc2cncn2CC(O)(P(=O)(O)O)P(=O)(O)O)cc1 [Example 5] | 3.5 |
| O=P(O)(O)C(O)(Cn1cncc1CCCc1ccccc1)P(=O)(O)O [Example 1] | 1.9 |
| O=P(O)(O)C(O)(Cn1cncc1CCc1ccccc1)P(=O)(O)O [Example 4] | 6.7 |
| O=P(O)(O)C(O)(Cn1cnc(CCc2ccccc2)c1)P(=O)(O)O [Example 3] | 1.9 |

From: patent US20110257131A1
